B1: Nuclear receptor subfamily 4 group A member 2, residues 260 to 336; numbered along this chain, P43354 (parent)
chain: EGLCAVCGDNAACQHYGVRTCEGCKGFFKRTVQKNAKYVCLANKNCPVDKRRRNRCQYCRFQKCLAVGMVKEVVRTD

# Variants of: B1
# PROTOCOL_DETAILS: abundance fitness (aPCA) (normalised: wild type 0, dead -1); higher = more abundant; growth selection in yeast, the domain comes from the species named
# EXPERIMENTAL_SETUP: Homo sapiens
abundance fitness overview
Just the number, please, no unit after it.

{"SEQUENCE_INPUT": "EGLCAVCGDNAACQHYGVRTCEGCKGFFKRTVQKNAKYVCLANKNCPVDKRRRNRCQYCRFQKCLAVGMVKEVVATD", "MEASURED": -0.01}
{"SEQUENCE_INPUT": "EGLCAVCGDNAACQHYGVRTCEGCKGFFKRTVQKNAKYVCLANKNCPVDKRRRNRCQYCRFQKCLAVGMVKEVVRTF", "MEASURED": -0.229}
{"SEQUENCE_INPUT": "EGLCAVCGDNAACQHYGSRTCEGCKGFFKRTVQKNAKYVCLANKNCPVDKRRRNRCQYCRFQKCLAVGMVKEVVRTD", "MEASURED": -0.121}

Alright, here's another variant for you.
Inquiry: Entry EGLCAVCGDNAACQHYGPRTCEGCKGFFKRTVQKNAKYVCLANKNCPVDKRRRNRCQYCRFQKCLAVGMVKEVVRTD has what abundance fitness?
Reply text: -0.11
